- Tested on: mPB CD34+ cells, NAV1.7
- ASSAY_SUMMARY: Gene editing rates (TIDE assay) in mPB CD34+ cells electroporated with RNP (spCAS9 protein+NAV1.7 sgRNA) and NAV1.7 Non-PAM ssODN
- Type: cell-based, human
- DETAILS: Homo sapiens, CD34+, Donor B, NaV1.7; read-out: HDR EC50
ASSAY_ENDPOINT: pEC50
Scale: pEC50 equals -log10([C]), with [C] in mol/L.

Task item: # pEC50 lookup, item Cn1c(=O)cnc2cc(N3CCOCC3)cc(O[C@H]3CC[C@@H](Nc4ncccn4)CC3)c21
Reply: 6.54
